target: T1, recombinant human IL-17A (human, UniProt Q16552 24-155); test: competition ELISA, IL-17A binding to coated IL-17RA-Fc
T1 construct: Bought recombinant protein (Peprotech AF-200-17); also called Peprotech AF-200-17
T1 sequence (Q16552 24-155): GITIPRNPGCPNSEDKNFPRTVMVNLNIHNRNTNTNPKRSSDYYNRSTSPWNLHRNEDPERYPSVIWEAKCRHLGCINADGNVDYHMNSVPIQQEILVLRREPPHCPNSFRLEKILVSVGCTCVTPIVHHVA
Endpoint Label: IC50 (nM)

1. Clone 3.5 (VHH, Human single VH domain) VHH: QVQLVQSGAEVKKPGASVKVSCAASGYTFTDYYLHWVRQAPGQGLEWMGWINPNTGTTKYAREFEGRVTMTRDTSISTAYMELSRLRSDDTAVYYCASLDRDWRSPNDYFGWFDSWGQGTLVTVSS : 4
2. Clone 3.13 (VHH, Human single VH domain) VHH: QVQLVQSGAEVKKPGASVKVSCKASGYNFDAYHINWVRQAPGQGLEWMGSIKPNSGATKYAQKFQGRVTITRDTSISTAYMELSRLRSDDTAVYYCASLDRDTWYPHSYAGWFDSWGQGTLVTVSS : 2
3. Clone 3.9 (VHH, Human single VH domain) VHH: QVQLVQSGAEVKKPGASVKVSCKASGYNFDAYHINWVRQAPGQGLEWMGSIKPNSGATKYAQKFQGRVTITRDTSISTAYMELSRLRSDDTAVYYCASMDRDYYDTSGYFGWFDSWGQGTLVTVSS : 43
4. VH 3.2.1 (clone 3.2 expressed from phagemid vector: with linker residues and His tag) (VHH, Human single VH domain) VHH: QVQLVQSGAEVKKPGASVKVSCKASGYNADAYYINWVRQAPGQGLEWMGSIKPNTGATKYAQKFQGRVTITRDTSISTAYMELSRLRSDDTAVYYCASLDRDTWYPHSYAGWFDAWGQGTLVTVSS : 2.5

The values you see were collected from patent US20200347127A1.
